assay: acute toxicity in the mouse; details: in vivo, intravenous, read-out: LD50 i.v.
REPORTED METRIC: LD50

INPUT: Can you look up the measured LD50 of O=C(O)CSCC(=O)NC1CCSC1=O (stereo not shown) [PV 144] for me?
OUTPUT: > 3500 mg/kg

---

test: acute toxicity in the mouse; conditions: in vivo, oral, read-out: LD50 oral
REPORTED METRIC: LD50

INPUT: Can you look up the measured LD50 of O=C(O)CSCC(=O)NC1CCSC1=O (stereo not shown) for me?
OUTPUT: > 10000 mg/kg

---

assay: acute toxicity in the rat; conditions: in vivo, oral, read-out: LD50 oral
REPORTED METRIC: LD50

INPUT: Can you look up the measured LD50 of O=C(O)CSCC(=O)NC1CCSC1=O (stereo not shown) for me?
OUTPUT: > 10000 mg/kg
